System: 885724-159-R-J1-PDC complex spheroid viability;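 further: spheroids exposed to compounds for 7 days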
Assay: Anticancer human tumor 885724-159-R-J1-PDC patient-derived pancreatic adenocarcinoma cell line growth inhibition [POLQ]
Settings: second compound 0.0316 µM; first compound 1 µM; hits give low values
Each entry below carries its reported viability, T/C.
Express the result in % but write the number alone.

Example entries and their recorded answers appear below.
CCc1c2c(nc3ccc(O)cc13)-c1cc3c(c(=O)n1C2)COC(=O)[C@]3(O)CC + Nc1ccc(C#CCN(C(=O)Cc2ncc(C(F)(F)F)cc2C(F)(F)F)c2ccc(F)cc2)nn1 :: 5.95
COc1cccc(OCCCN)c1-c1cc(Nc2cnc(C#N)cn2)n[nH]1 + COC1C(OC(N)=O)C(O)C(Oc2ccc3c(O)c(NC(=O)c4ccc(O)c(CC=C(C)C)c4)c(=O)oc3c2C)OC1(C)C :: 46.8
O=c1[nH]cc(F)c(=O)[nH]1 + COC1C(OC(N)=O)C(O)C(Oc2ccc3c(O)c(NC(=O)c4ccc(O)c(CC=C(C)C)c4)c(=O)oc3c2C)OC1(C)C :: 95.6
O=C(Nc1ccc(O)c(NS(=O)(=O)c2ccc(F)cc2)c1)c1ccc(-c2ccccc2)cc1 + Nc1ccc(C#CCN(C(=O)Cc2ncc(C(F)(F)F)cc2C(F)(F)F)c2ccc(F)cc2)nn1 :: 97.6

Please find the next molecule below.
Param item = COc1cccc2c1C(=O)c1c(O)c3c(c(O)c1C2=O)CC(O)(C(=O)CO)CC3OC1CC(N)C(O)C(C)O1 (stereo not given) + COC1C(OC(N)=O)C(O)C(Oc2ccc3c(O)c(NC(=O)c4ccc(O)c(CC=C(C)C)c4)c(=O)oc3c2C)OC1(C)C ; retrieve measured viability, T/C.
11.6

Cited source: PubChem BioAssay AID1963832
